Reported Efficacy values for the following molecules.
System: Botrytis cinerea
RUN DESCRIPTION: Fungicidal activity against Botryotinia fuckeliana infected in drug-pretreated cucumber two seeded leaves assessed as decrease in disease index at 500 ug/ml (acetone Rvb = 1.53 +/-0.21%)
Type: functional
Give the value, in units of %, as a plain number.

Answered examples (4):
| MOLECULE | UOM | Efficacy |
| --- | --- | --- |
| CC(=O)N1N=C(c2ccc(-c3ccc(Cl)cc3)o2)OC1c1ccccc1 (stereo not given) | % | 70.71 |
| CC(=O)N1N=C(c2ccc(-c3ccccc3Cl)o2)OC1c1ccc(Br)cc1 (stereo not given) | % | 23.23 |
| COc1ccc(C(=O)NNC(=O)c2ccc(-c3ccccc3[N+](=O)[O-])o2)cc1 | % | 35.5 |
| O=C(NNC(=O)c1ccc(-c2ccccc2[N+](=O)[O-])o1)c1ccc(Cl)cc1 | % | 79.58 |

Turning now to a further molecule:
Recorded Efficacy for `O=C(NNC(=O)c1ccccc1Cl)c1ccc(-c2ccc(F)cc2)o1` , please? 89.57

---

Test system: Botrytis cinerea
RUN DESCRIPTION: Fungicidal activity against Botryotinia fuckeliana infected in drug-pretreated cucumber two seeded leaves assessed as decrease in disease index at 500 ug/ml (acetone Rvb = 1.53 +/-0.21%)
Assay type: functional
Reported Efficacy values for the following molecules.
Give the value, in units of %, as a plain number.

| MOLECULE | READOUT KIND | UOM | VALUE REPORTED |
| --- | --- | --- | --- |
| CCC(=O)N1N=C(c2ccc(-c3ccccc3Cl)o2)OC1c1ccc(Br)cc1 (stereo not given) | Efficacy | % | 13.91 |
| CC(=O)N1N=C(c2ccc(-c3ccccc3F)o2)OC1c1ccc(Cl)cc1 (stereo not given) | Efficacy | % | 18.89 |
| Fc1ccc(-c2ccc(-c3nnc(-c4ccccc4Cl)o3)o2)cc1 | Efficacy | % | 76.52 |
| O=C(N/N=C/c1ccc(Cl)cc1)c1ccc(-c2ccccc2F)o1 | Efficacy | % | 27 |
| O=C(N/N=C/c1ccccc1)c1ccc(-c2ccc(Cl)cc2)o1 | Efficacy | % | 11 |

Turning now to a further molecule:
Recorded Efficacy for CC(=O)N1N=C(c2ccc(-c3ccc(F)cc3)o2)OC1c1ccccc1Cl (stereo not given) , please? 76.28

---

Tested on: Botrytis cinerea
RUN DESCRIPTION: Fungicidal activity against Botryotinia fuckeliana infected in drug-pretreated cucumber two seeded leaves assessed as decrease in disease index at 500 ug/ml (acetone Rvb = 1.53 +/-0.21%)
Format: functional
Reported Efficacy values for the following compounds.
Give the number first and the unit second.

Answered examples (5):
| COMPOUND | Efficacy |
| --- | --- |
| CCOc1ccc(-c2nnc(-c3ccc(-c4ccccc4[N+](=O)[O-])o3)o2)cc1 | 33.75% |
| CCC(=O)N1N=C(c2ccc(-c3ccc(F)cc3)o2)OC1c1ccccc1Cl (stereo unspecified) | -24.9% |
| O=C(N/N=C/c1ccc(Br)cc1)c1ccc(-c2ccccc2Cl)o1 | 91.76% |
| COc1ccc(C(=O)NNC(=O)c2ccc(-c3ccc([N+](=O)[O-])cc3)o2)cc1 | 29.9% |
| COc1ccc(-c2nnc(-c3ccc(-c4ccc([N+](=O)[O-])cc4)o3)o2)cc1 | 47.83% |

Recorded Efficacy for `Cc1ccc(C(=O)NNC(=O)c2ccc(-c3ccc(Cl)cc3)o2)cc1` , please? 4.35%

Next: `COc1ccc(-c2nnc(-c3ccc(-c4ccccc4[N+](=O)[O-])o3)o2)cc1` 92.68%

Next: `Clc1ccccc1-c1ccc(-c2nnc(-c3ccc(Br)cc3)o2)o1` -2.61%

Next: `O=C(NNC(=O)c1ccc(-c2ccccc2Cl)o1)c1ccc(Br)cc1` 24.64%

Next: `O=[N+]([O-])c1ccccc1-c1ccc(-c2nnc(-c3ccc(Cl)cc3)o2)o1` -30.02%

Next: `O=C(N/N=C/c1ccccc1Cl)c1ccc(-c2ccc(F)cc2)o1` 72%

Values compiled from ChEMBL document CHEMBL3045525.
